# Target or system: Thyrotropin-releasing hormone receptor (Homo sapiens)
# Test name: qHTS for Small Molecule Agonists and Allosteric Enhancers of Human TRH Receptor: Primary Screen for Enhancers; note: 0% is about no effect
# Condition notes: TRHR cells, fluo-8 calcium fluorescence, EC20 TRH enhancement; at 2 µM; stronger effect = higher value
Out of some 360,000 compounds screened, about 2,400 (0.67%) were called active. This excerpt belongs to a sample that is enriched for actives.
Quantity: enhancement (%)
Write it as a number; the unit % goes unstated.

Prompt: Which measured enhancement value corresponds to `COc1ccc(-c2nc(CN3CCC(C(=O)NCc4ccccc4)CC3)c(C)o2)cc1OC` ?
Response: 3.63

Prompt: Which measured enhancement value corresponds to COc1ccc(CCNC(=O)C2CCCN(Cc3nc(-c4cccc(Cl)c4)oc3C)C2)cc1OC (stereo not given) ?
Response: -8.38

Prompt: Which measured enhancement value corresponds to `COc1ccc(CCNC(=O)CCCn2c(=O)c3ccccc3n(Cc3ccc(F)cc3Cl)c2=O)cc1OC` ?
Response: 4.63

Prompt: Which measured enhancement value corresponds to `OCC1(CCc2ccccc2)CCN(Cc2ccc3nsnc3c2)CC1` ?
Response: -4.46

Prompt: Which measured enhancement value corresponds to `Cc1cc(C)cc(NC(=O)Cn2nc(N3CCN(c4ccccc4)CC3)ccc2=O)c1` ?
Response: -3.13

Prompt: Which measured enhancement value corresponds to COc1ccc(N(C(=O)CNC(=O)c2ccco2)C(C(=O)NCC2CCCO2)c2ccccc2)cc1Cl (stereo not given) ?
Response: -16.4

Prompt: Which measured enhancement value corresponds to `Cc1cc(-c2ccccc2)n2nc(-c3ccccc3)cc2n1` ?
Response: 33

Prompt: Which measured enhancement value corresponds to `Cc1cc(C)cc(NC(=O)CCCc2nc(-c3ccccc3Cl)no2)c1` ?
Response: -21.4

Prompt: Which measured enhancement value corresponds to `CCCn1c2ccccc2c2cnn(CC(=O)N(CC)c3cc(C)ccc3C)c(=O)c21` ?
Response: -3.36

Prompt: Which measured enhancement value corresponds to Cc1ccc(N(C(=O)CNC(=O)c2ccco2)C(C(=O)NC2CCCC2)c2ccncc2)cc1 (stereo not given) ?
Response: 0.937

Prompt: Which measured enhancement value corresponds to `O=C(NC1CCCCC1)c1ccc(Cn2c(SCc3ccccc3)nc3cccnc32)cc1` ?
Response: 7.91

Prompt: Which measured enhancement value corresponds to `Cc1ccc(-c2cc(C(F)(F)F)c(C#N)c(SCC(=O)Nc3ccccc3)n2)cc1` ?
Response: 7.58

Prompt: Which measured enhancement value corresponds to `CCn1c(CN2CCC(C)CC2)nc2cc(NC(=O)c3ccccc3[N+](=O)[O-])ccc21` ?
Response: 3.72

Prompt: Which measured enhancement value corresponds to `COc1ccccc1CNC(=O)c1ccc(-n2c(C)cc3c2CCCC3)cc1` ?
Response: -0.647

Prompt: Which measured enhancement value corresponds to N#CN1CCC(NS(=O)(=O)c2cccc(F)c2)C1 (stereo not given) ?
Response: -3.49
